# Target Under Test: XIAP BIR3 (His-BIR3 (241-356, XIAP)) (Homo sapiens (Human), UniProt P98170)
# Sequence (P98170 241-356): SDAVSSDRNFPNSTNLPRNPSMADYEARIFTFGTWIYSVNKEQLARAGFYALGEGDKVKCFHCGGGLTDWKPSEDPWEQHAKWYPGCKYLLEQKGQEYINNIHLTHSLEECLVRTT
# Protocol: XIAP-BIR3/SMAC Homogeneous Time Resolved Fluorescence (HTRF) Assay
# Measurement Setup: 1 nM N-His-BIR3, 5 nM fluorescein labeled SMAC peptide; read-out: XIAP BIR3 FRET IC50
Measured Parameter: IC50 (nM)
Please respond with the number in nM and leave the unit unwritten.

Use the examples below as a reference point.
>>> observed_measurement("CN[C@@H](C)C(=O)N[C@H](C(=O)N1CC[C@@H]2[C@H]1C(=O)N[C@@H](Cc1ccc3ccccc3c1)C(=O)N[C@H](C(=O)O)Cc1ccc(cc1)OCc1cn(nn1)[C@@H]1CCN(C(=O)[C@@H](NC(=O)[C@H](C)NC)C(C)(C)C)[C@@H]1C(=O)N[C@@H](Cc1ccc3ccccc3c1)C(=O)N[C@H](C(=O)NS(=O)(=O)c1ccccn1)Cc1ccc(cc1)OCc1cn2nn1)C(C)(C)C [Example 10]")
63.1
>>> observed_measurement("CN[C@@H](C)C(=O)N[C@H](C(=O)N1CC[C@@H]2[C@H]1C(=O)N[C@@H](Cc1ccc3ccccc3c1)C(=O)N[C@H](C(=O)O)Cc1ccc(cc1)OCc1cn(nn1)[C@@H]1CCN(C(=O)[C@@H](NC(=O)[C@H](C)NC)C(C)(C)C)[C@@H]1C(=O)N[C@@H](Cc1ccc3ccccc3c1)C(=O)N[C@H](c1nnn[nH]1)Cc1ccc(cc1)OCc1cn2nn1)C(C)(C)C (single isomer, unassigned) [Example 16]")
4.4
>>> observed_measurement("CN[C@@H](C)C(=O)N[C@H](C(=O)N1CC[C@@H]2[C@H]1[C@@H](Cc1ccc3ccccc3c1)C(=O)N[C@H](C(=O)O)Cc1ccc(cc1)OCc1cn(nn1)[C@@H]1CCN(C(=O)[C@@H](NC(=O)[C@H](C)NC)C(C)(C)C)[C@@H]1C(=O)C[C@@H](Cc1ccc3ccccc3c1)C(=O)N[C@H](C(=O)OC)Cc1ccc(cc1)OCc1cn2nn1)C(C)(C)C [Example 7]")
29
>>> observed_measurement("CN[C@@H](C)C(=O)N[C@H](C(=O)N1CC[C@@H]2[C@H]1C(=O)N[C@@H](Cc1ccc3ccccc3c1)C(=O)N[C@H](C(=O)O)Cc1ccc(cc1)OCc1cn(nn1)[C@@H]1CCN(C(=O)[C@@H](NC(=O)[C@H](C)NC)C(C)(C)C)[C@@H]1C(=O)N[C@@H](Cc1ccc3ccccc3c1)C(=O)N[C@H](c1nnn[nH]1)Cc1ccc(cc1)OCc1cn2nn1)C(C)(C)C (single isomer, unassigned) [Example 15]")
1.9
>>> observed_measurement("CN[C@@H](C)C(=O)N[C@H](C(=O)N1CC[C@H]2OCc3cn(nn3)[C@H](C(=O)O)CCNC(=O)[C@H](Cc3ccc4ccccc4c3)NC(=O)[C@@H]3[C@@H](CCN3C(=O)[C@@H](NC(=O)[C@H](C)NC)C(C)(C)C)OCc3cn(nn3)[C@H](C(=O)O)CCNC(=O)[C@H](Cc3ccc4ccccc4c3)NC(=O)[C@H]21)C(C)(C)C [Example 4]")
57.8

Read the entry CN[C@@H](C)C(=O)N[C@H](C(=O)N1CC[C@@H]2[C@H]1C(=O)N[C@@H](Cc1ccc3ccccc3c1)C(=O)N[C@H](C(=O)O)Cc1ccc(cc1)OCc1cn(nn1)[C@@H]1CCN(C(=O)[C@@H](NC(=O)[C@H](C)NC)C(C)(C)C)[C@@H]1C(=O)N[C@@H](Cc1ccc3ccccc3c1)C(=O)N[C@H](C(=O)O)c1ccc(cc1)OCc1cn2nn1)C(C)(C)C [Example 1] and write its reported IC50.
4.9

Read the entry CN[C@@H](C)C(=O)N[C@H](C(=O)N1CC[C@@H]2[C@H]1C(=O)NC(=O)C[C@@H](Cc1ccc3ccccc3c1)C(=O)N[C@H](C(=O)O)Cc1ccc(cc1)OCc1cn(nn1)[C@@H]1CCN(C(=O)[C@@H](NC(=O)[C@H](C)NC)C(C)(C)C)[C@@H]1C(=O)N[C@@H](Cc1ccc3ccccc3c1)C(=O)N[C@H](c1n[nH]c(=O)o1)Cc1ccc(cc1)OCc1cn2nn1)C(C)(C)C [Example 14] and write its reported IC50.
8.6

Read the entry CN[C@@H](C)C(=O)N[C@H](C(=O)N1CC[C@H]2OCc3cn(nn3)CCC[C@H](C(=O)O)NC(=O)[C@H](Cc3ccc4ccccc4c3)NC(=O)[C@@H]3[C@@H](CCN3C(=O)[C@@H](NC(=O)[C@H](C)NC)C(C)(C)C)OCc3cn(nn3)CCC[C@H](C(=O)O)NC(=O)[C@H](Cc3ccc4ccccc4c3)NC(=O)[C@H]21)C(C)(C)C [Example 3] and write its reported IC50.
1.9

Read the entry CN[C@@H](C)C(=O)N[C@H](C(=O)N1CC[C@@H]2[C@H]1C(=O)N[C@@H](Cc1ccc3ccccc3c1)C(=O)N[C@H](C(=O)O)Cc1ccc(cc1)OCc1cn(nn1)[C@@H]1CCN(C(=O)[C@@H](NC(=O)[C@H](C)NC)C(C)(C)C)[C@@H]1C(=O)N[C@@H](Cc1ccc3ccccc3c1)C(=O)N[C@H](C(=O)NS(=O)(=O)C1CC1)Cc1ccc(cc1)OCc1cn2nn1)C(C)(C)C [Example 11] and write its reported IC50.
10.3

Read the entry CN[C@@H](C)C(=O)N[C@H](C(=O)N1CC[C@@H]2[C@H]1C(=O)N[C@@H](Cc1ccc3ccccc3c1)C(=O)N[C@H](C(=O)O)Cc1ccc(cc1)OCc1cn(nn1)[C@@H]1CCN(C(=O)[C@@H](NC(=O)[C@H](C)NC)C(C)(C)C)[C@@H]1C(=O)N[C@@H](Cc1ccc3ccccc3c1)C(=O)N[C@H](c1nc(=O)o[nH]1)Cc1ccc(cc1)OCc1cn2nn1)C(C)(C)C [Example 20] and write its reported IC50.
10.1

Read the entry CN[C@@H](C)C(=O)N[C@H](C(=O)N1CC[C@@H]2[C@H]1C(=O)N[C@@H](Cc1ccc3ccccc3c1)C(=O)N[C@H](C(=O)O)Cc1ccc(cc1)OCc1cn(nn1)[C@@H]1CCN(C(=O)[C@@H](NC(=O)[C@H](C)NC)C(C)(C)C)[C@@H]1C(=O)N[C@@H](Cc1ccc3ccccc3c1)C(=O)N[C@H](c1nc(=S)o[nH]1)Cc1ccc(cc1)OCc1cn2nn1)C(C)(C)C [Example 17] and write its reported IC50.
3.2

Read the entry CN[C@@H](C)C(=O)N[C@H](C(=O)N1CC[C@@H]2[C@H]1C(=O)N[C@@H](Cc1ccc3ccccc3c1)C(=O)N[C@H](C(=O)O)Cc1ccc(cc1)OCc1cn(nn1)[C@@H]1CCN(C(=O)[C@@H](NC(=O)[C@H](C)NC)C(C)(C)C)[C@@H]1C(=O)N[C@@H](Cc1ccc3ccccc3c1)C(=O)N[C@H](c1nc(=O)o[nH]1)Cc1ccc(cc1)OCc1cn2nn1)C(C)(C)C [Example 19] and write its reported IC50.
2
